- EXPERIMENT DESCRIPTION: yeast display, Sf9 membrane polyspecificity reagent, FACS + sequencing; frameworks hold sequencing errors
MEASUREMENT TYPE: polyreactivity (PSR sort gate)

* QVQLVESGGGLVQAGGSLRLSCAASAFIFSGNAMGWNRQAPGKERELVAAISGRGGRTYYADSVKGRFTISRDNAKNTVYLQMNSLKPEDTAVYYCAADNPYLGRKFDYWGQGTQVTVSS | high polyreactivity
* QVQLVESGGGLVQAGGSLRLSCAASGSILHAYALGWYRQAPGTERELVAAINWSGGSTYYADSVKGRFTISRDNAKNTVYLQMNSLKPEDTAVYYCAKVWRYGRYEYGYWGQGTQVTVSS | high polyreactivity
* QVQLVESGGGLVQAGGSLRLSCAASGFTFVYYTMGWYRPAPRKVRELVAAISSSGGRTSYADSVKGLFTISRDNAKNTVYLQMNSLKPEDTAVYYCAARAYPTWRTYYYWGQGTQVTVSS | high polyreactivity

* * *

- EXPERIMENT DESCRIPTION: yeast display, Sf9 membrane polyspecificity reagent, FACS + sequencing; frameworks hold sequencing errors
MEASUREMENT TYPE: polyreactivity (PSR sort gate)

Examples with answers:
* QVQLVESGGGLVQAGGSLRLSCAASGLFFYAYSMGWYRQAPAKERELVAAISGSGGNTYYADSVKGRFTISRDNAKNSVYLQMNSLKQEDTAVYYCAADYTAAYPDSMYYWGQGTQVTVSS | low polyreactivity
* QVQLVESGGGLVQAGGRLRLSCAASGRIFSDYAMGWYRQAPGKERELVAVITRGGDNTHYADSVKGRFSISRDNAKNTVYLQMNSLKAEDTAVYYCAAGFVYFRLRRYFWRDYCGQGTQVTVSS | low polyreactivity
* QVQLVESGGGLVQAGGSLRLSCAASGLTFQWYAMGWYRQAPGKERELVAAISSRGGSTYYADSVKGRFTISRDNAKNTVYLQMNSLKPVDTAVYYCAVYTIGYLAWYQKFDYWGQGTQVTVSS | high polyreactivity
* QVQLVESGGGLVQAGGSLRLSCAASGRTILLNDMGWYRQAPGKERELVAGITRSGGSTYYADSVKGRFTISRDNAKNTVYLQMNSLKPEDNAVYYCAADFKPLYYDEYDYWGQGTQVTVSS | low polyreactivity

# return recorded polyreactivity (PSR sort gate) for input QVQLVESGGGLVQAGVSLRLSCAASGRIFPSYAMGWYRQAPGKEREMVAAITSSDSTYYADSVKGRFTISRDNAKNTVYLQMNSLKPDDTAVYYCAAAYSYSGWWWFGYWGQGTQVTVSS
high polyreactivity

Indicate its recorded polyreactivity (PSR sort gate); the sequence in question is QVQLVESGGGLVQAGGSLRLSCAASGRTLSHYAMGWYRQAPGKERELVAAISQSGGSTRYADSVKGRFTISRDNAKNTVYLQMISLKPEDTAVYYCAVRQLYSYPGDRRGYYWGQGTQVTVSS
high polyreactivity

Identify measured polyreactivity (PSR sort gate) associated with QVQLVESGGGLVQAGGSLRLSCAASGRIFYKYAKGWYRQAPGKERELVAAITTSGGSTYYADSVKGRFTISRDNAKNTVYLQMKSLKPEDTAVYYCARDLNGRFLTTGRGMDYWGQGTQVTVSS
high polyreactivity

* * *

- EXPERIMENT DESCRIPTION: yeast display, Sf9 membrane polyspecificity reagent, FACS + sequencing; frameworks hold sequencing errors
MEASUREMENT TYPE: polyreactivity (PSR sort gate)

Solved entries:
* QVQLVESGGGLVQAGGSLRLSCAASGRIFFANAMGWYRQAPGKERELVATITSGESTNYADSVKGRFTISRDNAKNTVYFEMNSLKPEDTAVYYCAADYYWYSPGAYSYAGYDYWGQGTQVTVSS | low polyreactivity
* QVQLVESGGGLVQAGGSLRLSCAASGFTFSRYAMAWYRQAPGKERELVAAITWSGGRTYYADSVKGRFTISRDNAKNTVYLQMNSLKPEATAVYYCAAVYHVWKYHYDYWGQGTQVTVSS | high polyreactivity
* QVQLVESGGGLVQAGGSLRLSCAASGYTFGYNVMGWYRQAPGKERELVAVISSGGTTYYADSVKGRFTISRDNAKNTVYLQMNSLKPEDTAVYYCNKRSAYKYRTHYGYYYWGQGTQVTVSS | high polyreactivity
* QVQLVESGGGLVQAGGSLRLSCAASGSIFPAYAMGWYRQAPGKEREFVAAISGTGGITYYADSVKGRFTISRDNAKNTVYLQMNSLKPEDTEVYYCAAPVYNRYYYWGQGTQVTVSS | low polyreactivity

Now for another entry.
Query polyreactivity (PSR sort gate) for QVQLVESGGGLVQAGGSLRLSCAASGRIFNQYGMGWYRPAPGKERELVAAIRYGDSTNYADSVKGRFTISRDNAKNTVYLQMNSLKPEDTAVYYCARDPAGDYAGYDYWGQGTQVTVSS
low polyreactivity

* * *

- EXPERIMENT DESCRIPTION: yeast display, Sf9 membrane polyspecificity reagent, FACS + sequencing; frameworks hold sequencing errors
MEASUREMENT TYPE: polyreactivity (PSR sort gate)

Known polyreactivity (PSR sort gate) results, listed for orientation:
- QVQLVESGGGLDQAGGSLPLRCAATGSIFHDYALGWYSQAPGKERELVAVISTSGGSTYYADSVKGRFTISRDNAKNTVYLQMNSLKPEDTAVYYCNAELSFWALGYDYWGQGTQVTVSS: low polyreactivity
- QVQLVESGGGLVQAGGSLRLSCAASGSIFRRYAMGWYRQAPGKERELVAAISFSGYSTYYADSVKGRFTISRDNAKNTVYLQMNSLKPEDTAVYYCAARSQRHKLSRDYNYWGQGTQVTVSS: high polyreactivity
- QVQLVESGGGLVQAGGSLRLSCAASGLTFPYYAMGWYRKAPGKERELVAGISDSGGSTYYADSVKGRFTISRDNAKNTVYLQMNSLKPEDTAVYYCAAQGVDSYYENDYWGQGTQVTVSS: high polyreactivity
- QVQLVESGGGLVQAGGSLRLSCAASGSIFFVNAMGWYRQAPGKERELVAAITSGGNTNYADSVKGRFTISRDNAKNTVYFQMNSLKPEDTAVFYSATSYYLAYRSITTYDYWGQGTQVTVSS: low polyreactivity

For the next question, use this sequence.
Give the reported polyreactivity (PSR sort gate) for this sequence. QVQLVESGGGLVQAGGSLRLICAASGRTFAYYAMGWYRQAPGKERELVAAISSAGRTYYADSVKGRFTISRDNAKNTVYLHMNSLKPEDTSDYYCAVRWLTQFNGRYGSWGQGTQVTVSS
high polyreactivity

* * *

- EXPERIMENT DESCRIPTION: yeast display, Sf9 membrane polyspecificity reagent, FACS + sequencing; frameworks hold sequencing errors
MEASUREMENT TYPE: polyreactivity (PSR sort gate)

# annotated cases, reported polyreactivity (PSR sort gate) shown
* QVQLVESGGGLVQAGGSLTLICAASGRTLYLNAMGWYRQAPRKERELVAISSGGSTYYADSVKGRFTISRDNAKNTVYLQMNSLKPEVTAVYYCNADEHYHFCYVFWYAYDYWGQGTQVTVSS | low polyreactivity
* QVQLVESGGGLVQAGGRLRLSCAASGYIFSRYAMGWYRQAPGKERELVAAISKSGSSTYYADSVKGRFTISRDNAKNTVYLQMNSLKPEDTAVYYCATSYSVGYDYWGQGTQVTVSS | high polyreactivity
* QVQLVESGGGLVQAGGSLRLSCAASGRIFDYYAMGWYRPAPGKERELVAAITSGGTTTYYADSVKGRFTISRDNAKNTVYVQMNSLKPEDTAVYYCAKYPYHIYHTDGDYWGQGTQVTVSS | low polyreactivity
* QVQLVESGGGLVQAGGSLRLSCAASGGIFADYAMGWYRQAPGKERELVAAISSGGNTNYADSVKGRFTISRDNAKNTVYLQMNSLKPEDTAVYYCNRDTSYYRYVYYEGNDYWGQGTQVTVSS | low polyreactivity
* QVQLVESGGGLVQAGGSLRLSCAASGRIFWTYAMGWYRHAPGKERELVAVISIGGTTYYADTVKGRFTISRDNAKNTVYLQMNSLKPEDTAVYYSAAPPSNATGFLSYDYWGQGTQVTVSS | low polyreactivity

Give me measured polyreactivity (PSR sort gate), please, for this sequence: QVQLVESGGGIVQAGGSLRLSCAASGSTFGGNAMGWYRQAPGKERELVAAITSGTGTHYADSVKGRFTISRDNAKNTVYLQMNSLKPEATAVYFCAAEVWSWAGIWGYEYWGQGTQVSVSS
low polyreactivity

State its polyreactivity (PSR sort gate): QLQLVESGGGLVQAGGSLRLSCAASGFTFYVNAMGWYRQDPGKETEFVAAIDWSDTSTYYADSVKGRFTISRDNAKNTVYLQMISLKPVDTAVYYCAADFSPYDYDYWGQGTQVTVSS
high polyreactivity

Supply measured polyreactivity (PSR sort gate) of QVQLVESGGGLVQAGGSLRLSCAASGLIFAGYAMGWYRQAPGKERELVAAITWRGGRTYADSVKGRFTISRDNAKNTVYLQMNSLKPEDTAVFYCAVRRWGTSFVEDDYWGQGTQVTVSS in your reply.
low polyreactivity

For the sequence QVLLVESGGGLVQAGGSLRLSCAASGFIFPYNAMGWYRQAPGKERELVASISGSGRTNYADSVKGRFTISRDNAKNTVYLQMNSLKPEDTAVYYCNKRWYVQKGYDYWGQGTQVTVSS , give its measured polyreactivity (PSR sort gate) value.
high polyreactivity

Query polyreactivity (PSR sort gate) for QDQLVESGGGLVQAGGSLRLSCAASGRIFRYYAMGWYRQAPGKERELVAGMSGSGGSTYYADSVKGRFTISRDNAKNTVYLQMNSLKPEDTAVYYCAADYVRVGSLHGVYTYKKYDYWGQGTQVTVSS
high polyreactivity

Annotate the sequence QVQLVESGGGLVQAGGSLRLSCAASGGTFALNAMGWYRQAPGKERELVADIDGRGGSTYYADSVKGRFTISRDNAKNTVYLQMNSLKPEVTAVYYCAARAPFLSVPSELDYWGQGTQVTVSS with its measured polyreactivity (PSR sort gate).
low polyreactivity
